target: HeLa cell extract proteins (Homo sapiens); construct: endogenous in cells; host or cells: HeLa cell extract; format: binding; details: protein COPG; HeLa
REPORTED METRIC: fold changes relative to vehicle control

In [3]: df
Out[3]:
                                   molecule  reported_measurement
0  Nc1nc2cccc(-c3ccccc3)c2n1Cc1ccc(Cl)c(Cl)c1 [compound 3]                  1.14
1  CCCCCCOc1ccc(Cc2cnc(N)nc2N)cc1 [compound 1]                  0.93
2  NCCCNc1ccc(C(=O)NC(CCC(=O)O)C(=O)O)cc1 (stereo not drawn) [compound 7]                  1.03
3  Nc1nc2c(c(=O)[nH]1)N(C=O)C(CNc1ccc(C(=O)N[C@@H](CCC(=O)O)C(=O)O)cc1)CN2 (stereo partly drawn) [LEU, leucovorin]                  0.91
4  CCCCCCOc1cccc(Cc2cnc(N)nc2N)c1 [compound 2]                  1.39
5  NCCOCCOCC(=O)Nc1nc2ncc(CNc3ccc(C(=O)NC(CCC(=O)O)C(=O)O)cc3)nc2c(=O)[nH]1 (stereo not drawn) [compound 6]                  1.03

* * *

biological target: HeLa cell extract proteins (Homo sapiens); construct: endogenous in cells; host or cells: HeLa cell extract; assay type: binding; settings: HeLa; protein MAP3K6
REPORTED METRIC: fold changes relative to vehicle control

>>> print(df.to_string())
                                   compound                             target_entity  reported_measurement
0  NCCCNc1ccc(C(=O)NC(CCC(=O)O)C(=O)O)cc1 (stereo not drawn) [compound 7]  HeLa cell extract proteins (Homo sapiens)                  1.16
1  CCCCCCOc1ccc(Cc2cnc(N)nc2N)cc1 [compound 1]  HeLa cell extract proteins (Homo sapiens)                  0.99
2  NCCOCCOCC(=O)Nc1nc2ncc(CNc3ccc(C(=O)NC(CCC(=O)O)C(=O)O)cc3)nc2c(=O)[nH]1 (stereo not drawn) [compound 6]  HeLa cell extract proteins (Homo sapiens)                  1.19
3  Nc1nc2c(c(=O)[nH]1)N(C=O)C(CNc1ccc(C(=O)N[C@@H](CCC(=O)O)C(=O)O)cc1)CN2 (stereo partly drawn) [LEU, leucovorin]  HeLa cell extract proteins (Homo sapiens)                  0.99
4  Nc1nc2cccc(-c3ccccc3)c2n1Cc1ccc(Cl)c(Cl)c1 [compound 3]  HeLa cell extract proteins (Homo sapiens)                  0.97
5  CCCCCCOc1cccc(Cc2cnc(N)nc2N)c1 [compound 2]  HeLa cell extract proteins (Homo sapiens)                  0.97

* * *

biological target: HeLa cell extract proteins (Homo sapiens, UniProt P06753); construct: endogenous in cells; host or cells: HeLa cell extract; type: binding; settings: protein TPM3; HeLa
Sequence (P06753 whole entry): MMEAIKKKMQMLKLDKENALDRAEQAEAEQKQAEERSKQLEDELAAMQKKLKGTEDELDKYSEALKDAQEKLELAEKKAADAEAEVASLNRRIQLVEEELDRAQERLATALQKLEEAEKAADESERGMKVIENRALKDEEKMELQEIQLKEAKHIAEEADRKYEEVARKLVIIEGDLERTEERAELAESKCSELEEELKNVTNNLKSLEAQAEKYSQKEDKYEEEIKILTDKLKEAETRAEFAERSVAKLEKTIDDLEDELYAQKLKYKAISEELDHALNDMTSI
REPORTED METRIC: fold changes relative to vehicle control

In [3]: df
Out[3]:
                                   compound                             target_entity  reported_measurement
0            CCCCCCOc1cccc(Cc2cnc(N)nc2N)c1  HeLa cell extract proteins (Homo sapiens, UniProt P06753)                  2.05
1  NCCOCCOCC(=O)Nc1nc2ncc(CNc3ccc(C(=O)NC(CCC(=O)O)C(=O)O)cc3)nc2c(=O)[nH]1 (stereo not drawn)  HeLa cell extract proteins (Homo sapiens, UniProt P06753)                  1.18
2            CCCCCCOc1ccc(Cc2cnc(N)nc2N)cc1  HeLa cell extract proteins (Homo sapiens, UniProt P06753)                  1.18
3  Nc1nc2cccc(-c3ccccc3)c2n1Cc1ccc(Cl)c(Cl)c1  HeLa cell extract proteins (Homo sapiens, UniProt P06753)                  0.87
4  NCCCNc1ccc(C(=O)NC(CCC(=O)O)C(=O)O)cc1 (stereo not drawn)  HeLa cell extract proteins (Homo sapiens, UniProt P06753)                   1.1
5  Nc1nc2c(c(=O)[nH]1)N(C=O)C(CNc1ccc(C(=O)N[C@@H](CCC(=O)O)C(=O)O)cc1)CN2 (stereo partly drawn)  HeLa cell extract proteins (Homo sapiens, UniProt P06753)                  0.93

* * *

molecular target: HeLa cell extract proteins (Homo sapiens); construct: endogenous in cells; host or cells: HeLa cell extract; assay type: binding; details: protein STAT3; HeLa
Entries annotated with measured fold changes relative to vehicle control
REPORTED METRIC: fold changes relative to vehicle control

In [3]: df
Out[3]:
                                   molecule  reported_measurement
0  Nc1nc2cccc(-c3ccccc3)c2n1Cc1ccc(Cl)c(Cl)c1                  1.15
1            CCCCCCOc1cccc(Cc2cnc(N)nc2N)c1                   1.1
2            CCCCCCOc1ccc(Cc2cnc(N)nc2N)cc1                  0.87
3  Nc1nc2c(c(=O)[nH]1)N(C=O)C(CNc1ccc(C(=O)N[C@@H](CCC(=O)O)C(=O)O)cc1)CN2 (stereo partly drawn)                  0.81
4  NCCOCCOCC(=O)Nc1nc2ncc(CNc3ccc(C(=O)NC(CCC(=O)O)C(=O)O)cc3)nc2c(=O)[nH]1 (stereo not drawn)                  0.91
5  NCCCNc1ccc(C(=O)NC(CCC(=O)O)C(=O)O)cc1 (stereo not drawn)                     1

* * *

tested on: CHOLINE KINASE (TB427TMP.18.0017); assay: Multitargeted bead mixture competition; format: binding, T. brucei; settings: multitargeted bead mixture; free ligand 100 μM; T. brucei lysate; TB427TMP.18.0017 CHOLINE KINASE
Entries annotated with measured percentage of competition from bead binding
REPORTED METRIC: percentage of competition from bead binding (%)

In [3]: df
Out[3]:
                                   compound                      target_entity  reported_measurement
0  Nc1nc2cccc(-c3ccccc3)c2n1Cc1ccc(Cl)c(Cl)c1  CHOLINE KINASE (TB427TMP.18.0017)                    -1
1          Nc1nc(O)c2c(CCc3ccccc3)c[nH]c2n1  CHOLINE KINASE (TB427TMP.18.0017)                    49
2  CN(Cc1cnc2nc(N)nc(N)c2n1)c1ccc(C(=O)N[C@@H](CCC(=O)O)C(=O)O)cc1 [MTX, methotrexate]  CHOLINE KINASE (TB427TMP.18.0017)                    57
3        Cc1ccc2nc(N)[nH]c(=O)c2c1Sc1ccncc1  CHOLINE KINASE (TB427TMP.18.0017)                    34

* * *

biological target: HeLa cell extract proteins (Homo sapiens, UniProt O00743); construct: endogenous in cells; host or cells: HeLa cell extract; format: binding; details: HeLa; protein PPP6C
Sequence (O00743 whole entry): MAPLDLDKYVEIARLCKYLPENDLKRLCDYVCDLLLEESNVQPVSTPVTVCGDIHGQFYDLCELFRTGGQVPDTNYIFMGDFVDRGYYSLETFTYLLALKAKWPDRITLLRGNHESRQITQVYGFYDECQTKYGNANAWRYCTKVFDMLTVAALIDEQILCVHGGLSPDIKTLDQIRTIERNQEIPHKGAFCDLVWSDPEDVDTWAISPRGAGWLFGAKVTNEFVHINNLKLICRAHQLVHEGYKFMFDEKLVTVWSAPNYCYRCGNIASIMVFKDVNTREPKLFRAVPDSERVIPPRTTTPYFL
REPORTED METRIC: fold changes relative to vehicle control

                                   molecule                           reported_metric  reported_measurement
0  Nc1nc2c(c(=O)[nH]1)N(C=O)C(CNc1ccc(C(=O)N[C@@H](CCC(=O)O)C(=O)O)cc1)CN2 (stereo partly drawn) [LEU, leucovorin]  fold changes relative to vehicle control                  0.99
1  CCCCCCOc1cccc(Cc2cnc(N)nc2N)c1 [compound 2]  fold changes relative to vehicle control                  0.99
2  CCCCCCOc1ccc(Cc2cnc(N)nc2N)cc1 [compound 1]  fold changes relative to vehicle control                  1.01
3  Nc1nc2cccc(-c3ccccc3)c2n1Cc1ccc(Cl)c(Cl)c1 [compound 3]  fold changes relative to vehicle control                  1.04
4  NCCOCCOCC(=O)Nc1nc2ncc(CNc3ccc(C(=O)NC(CCC(=O)O)C(=O)O)cc3)nc2c(=O)[nH]1 (stereo not drawn) [compound 6]  fold changes relative to vehicle control                  1.05
5  NCCCNc1ccc(C(=O)NC(CCC(=O)O)C(=O)O)cc1 (stereo not drawn) [compound 7]  fold changes relative to vehicle control                  1.04
